Tested on: SF-295 CNS
Experiment: NCI tumour cell line growth inhibition, 48 h
Each record here notes measured GI50.

Solved cases (4 shown):
>  <Input smiles>
CC/C(=C(/CC)c1ccc(O)cc1)c1ccc([O-])cc1.CC/C(=C(/CC)c1ccc(O)cc1)c1ccc([O-])cc1.O=C([CH-]C(=O)c1ccccc1)c1ccccc1.O=C([CH-]C(=O)c1ccccc1)c1ccccc1.[Ti+4]

>  <Result>
17900 nM

$$$$
>  <Input smiles>
O=C(Nc1ccc(F)cc1F)c1cc(Br)ccc1O

>  <Result>
1900 nM

$$$$
>  <Input smiles>
COc1ccc(-c2nc3ncccn3c2/C=C/C(=O)c2cc(OC)c(OC)c(OC)c2)cc1

>  <Result>
2390 nM

$$$$
>  <Input smiles>
COc1cccc(-c2nc3sccn3c2-c2ccnc(NCCNS(=O)(=O)c3ccccc3)c2)c1

>  <Result>
2620 nM

$$$$

Let us examine a further case.
Noted for COC(=O)c1c2c(c(C)[n+]([O-])c1C)C(=O)C=C(NCc1ccc(OC)cc1)C2=O : its GI50 reads 1360 nM

Data origin: PubChem BioAssay (NCI)
